- target.of.assay: Dihydroorotate dehydrogenase (quinone), mitochondrial (Plasmodium falciparum (isolate 3D7)) (UniProt Q08210)
- Sequence (Q08210 whole entry, looked up): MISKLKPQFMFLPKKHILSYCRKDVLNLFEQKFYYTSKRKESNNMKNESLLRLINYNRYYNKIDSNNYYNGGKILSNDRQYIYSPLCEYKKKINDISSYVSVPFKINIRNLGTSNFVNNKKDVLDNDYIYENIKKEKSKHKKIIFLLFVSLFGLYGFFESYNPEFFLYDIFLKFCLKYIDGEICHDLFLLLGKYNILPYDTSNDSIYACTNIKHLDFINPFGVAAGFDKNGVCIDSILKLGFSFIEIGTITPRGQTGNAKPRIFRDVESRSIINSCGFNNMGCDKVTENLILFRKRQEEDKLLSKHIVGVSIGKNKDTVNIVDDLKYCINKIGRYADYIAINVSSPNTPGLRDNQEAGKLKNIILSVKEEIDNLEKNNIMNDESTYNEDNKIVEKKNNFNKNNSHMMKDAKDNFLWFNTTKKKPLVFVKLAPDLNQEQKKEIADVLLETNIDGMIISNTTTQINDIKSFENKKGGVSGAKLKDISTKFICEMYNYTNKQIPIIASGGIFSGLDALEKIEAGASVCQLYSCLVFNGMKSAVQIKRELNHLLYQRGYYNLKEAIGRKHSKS
- protocol.notes: PfDHODH enzyme inhibitors, primary screen, biochemical, C-terminal His tag, absorbance 600 nm (AID 1175);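 further: recombinant parasite enzyme with a five histidine tag at its C terminus; test concentration not given here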
- particulars: DCIP absorbance 600 nm, higher = more signal, called active from +8 up or from −8 down
Could you please report measured composite z-score for the items listed next?
Numbers only.

COC(=O)[C@@]1(Cc2ccc(OC)cc2)[C@H]2c3cc(C(=O)N4CCCC4)n(Cc4ccc(OC(F)(F)F)cc4)c3C[C@H]2CN1C(=O)c1ccccc1; -0.731
C=C[C@@H](OC)[C@H](OC(=O)Nc1ccc(OC)cc1)c1ccc(OC)c(O)c1; -0.0589
O=C(CS)NCCCCCNC(=O)[C@@H]1C[C@@H]2C(=O)N[C@@H](Cc3ccccc3)C(=O)N2[C@@H]1c1cccc(OCCO)c1; -0.148
CCCCNC(=O)c1ccc(C#C[Si](C(C)C)(C(C)C)C(C)C)c(OC(C)=O)c1; -1.29
COCCOC(=O)N1C(=O)[C@@]2(c3ccccc31)[C@H](c1ccc(OCCO)cc1)N1[C@H](c3ccccc3)[C@H](c3ccccc3)OC(=O)[C@H]1[C@@H]2C(=O)N1CCCCCCC1; 0.132

Provide each entry's composite z-score from the list below.
1. C=C(COC)/C(=C/C[C@H](OC(C)=O)c1cccc(OCCO)c1)c1cnc2ccccc2c1
2. C=CC1c2cc(O)c(OC)cc2CCN1Cc1ccc([N+](=O)[O-])o1 (stereo not drawn)
3. COC(=O)C1=CC(CCCO)=CC(C)N(Cc2cccc(OC(F)(F)F)c2)C=C1C(=O)OC (stereo not drawn)

Reply text:
-6.23
0.294
-2.73

Provide each entry's composite z-score from the list below.
1. C[C@]1(C(=O)NCCN2CCOCC2)c2ccccc2C(=O)N(Cc2cc(F)cc(C(F)(F)F)c2)[C@H]1c1ccc(CO)cc1
2. CCc1cccc(NC(=O)O[C@H]2[C@H](OC(=O)Nc3ccccc3)[C@H](OC(=O)Nc3ccccc3)[C@@H](OC)O[C@@H]2CO)c1
3. C=CC[C@H](OC(=O)Nc1ccc(SC)cc1)c1ccc(OCCO)cc1
4. C=CCC(OC(C)=O)[C@@H]1[C@@H](N(Cc2ccc(-c3cccc(C(F)(F)F)c3)o2)C(=O)c2ccc(C)cc2)c2cc(OCCCO)ccc2N1C(=O)Cc1ccc(OC)cc1 (stereo partly drawn)

Reply text:
[0.376, 0.0661, -1.51, -1.55]

Provide each entry's composite z-score from the list below.
1. COC(=O)[C@@]1(Cc2ccccc2CN=[N+]=[N-])N=C(c2ccc(OCCCO)cc2)O[C@H]1c1ccccc1
2. C[C@@]12COC[C@]13C=C(Br)[C@H](C2)[C@@]1(CO1)C3=O
3. CCCCC(=O)N(CCN1CCOCC1)[C@@H]1CC(C(=O)NCCO)=C[C@H](Oc2c(I)cc(CO)cc2OC)[C@H]1O
4. CCOC(=O)C[C@H]1[C@H](OC(=O)c2ccccc2-c2ccccc2)[C@@H](NC(=O)c2ccc3ccccc3n2)c2cc(OCCCO)ccc2N1C(=O)c1ccccc1
5. COCCOC(=O)N1C(=O)[C@@]2(c3cc(C#Cc4ccc(OC)cc4)ccc31)[C@H](C(=O)NC[C@H](O)c1ccccc1)[C@H]1C(=O)O[C@H](c3ccccc3)[C@H](c3ccccc3)N1[C@@H]2c1ccc(OCCO)cc1
6. C=CCC(OC(C)=O)[C@@H]1[C@@H](N(Cc2cc3ccccc3o2)C(=O)c2ccc(-c3ccccc3)cc2)c2cc(OCCCO)ccc2N1C(=O)Cc1ccc(OC)cc1 (stereo partly drawn)
7. CCCC=C(CCC)[C@@H](NC(=O)CCc1ccccc1)c1ccc(C(F)(F)F)cc1

Reply text:
1.09
-0.658
0.229
0.742
1.86
0.0211
-1.39

---

- protocol.notes: binders of probe aFST on microarray, primary screen, stem cell growth factor project, biochemical, small-molecule microarray, fluorescence 635/667 (AID 1086);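 further: score merges 667 nm fluorescence with signal-to-noise of each printed compound spot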
- particulars: higher = more signal
Use true when the recorded composite z-score is no lower than -0.2; use false when it is lower.

Study these solved cases before continuing.
CCOC(=O)C1=CC[C@@H](c2ccccc2)N(S(=O)(=O)c2ccc(C)cc2)[C@H]1C=Cc1ccccc1; true
CCOC(=O)C[C@H]1[C@H](OC(=O)c2ccc(-c3ccccc3)cc2)[C@@H](NC(=O)Cc2ccc(OC)cc2)c2cc(OCCCO)ccc2N1C(=O)Cc1ccc(OC)cc1; true
O=C(CS)NCCCCCCNC(=O)[C@@H]1C[C@@H]2C(=O)NCC(=O)N2[C@@H]1c1ccc(O)cc1; true
COCCOC(=O)N1C(=O)[C@@]2(c3cc(C#CC4(O)CCCCCC4)ccc31)[C@H](C(=O)N1CCN(c3ncccn3)CC1)[C@H]1C(=O)O[C@H](c3ccccc3)[C@H](c3ccccc3)N1[C@@H]2c1ccccc1OCCO; true

Inquiry: Answer whether composite z-score of CC1CC/C=C\[C@H]2OC34C=CCN(CCN5CCOCC5)C(=O)[C@H]3N(C(C)CO)C(=O)[C@@H]4C2C(=O)O1 (stereo partly specified) is greater than or equal to -0.2.
Reply text: false

Inquiry: Answer whether composite z-score of COc1ccc([Si](C)(C)[C@H]2[C@H](CCO)O[C@@]3(C(=O)N(Cc4ccc(N5C(=O)c6ccccc6Oc6ccccc65)cc4)c4ccccc43)[C@@H]2C)cc1 is greater than or equal to -0.2.
Reply text: false

---

- protocol.notes: fission yeast growth modulation, primary screen, strain 972, OD600, 24 h, no modulator (AID 1090);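 further: basal condition with compound alone and no growth modifier present; test concentration not given here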
- particulars: S. pombe 972 growth, higher = more signal, called active from +8 up or from −8 down
Use satisfied when the recorded z-score is no lower than -1; use not satisfied when it is lower.

Study these solved cases before continuing.
C=CCNC(=O)[C@@H]1[C@H]2C(=O)O[C@H](c3ccccc3)[C@H](c3ccccc3)N2[C@H](c2ccc(OCCO)cc2)[C@@]12C(=O)N(C(=O)OCCOC)c1ccc(C#CCCO)cc12; satisfied
O=C1C2C=CC(C(O)c3ccco3)N(Nc3ccccc3)C2C(=O)N1c1ccccc1 (configuration not stated); satisfied
C=C[C@@H](C)[C@@H](OC(=O)Nc1ccc(SC)cc1)c1ccc(OCCO)cc1; not satisfied
O=C1[C@@H]2[C@@H](CC(COc3ccccc3)=C3[C@@H](CCc4ccccc4)OB(O)C[C@@H]32)C(=O)N1Cc1ccccc1; not satisfied
O=C(N1CCOCC1)[C@@]1(CCS(=O)(=O)c2ccccc2)N=C(c2ccc(OCCCO)cc2)O[C@H]1c1ccccc1; satisfied

# next compound below
Inquiry: Answer whether z-score of COCCOC(=O)N1C(=O)[C@@]2(c3cc(C#CCC(C(=O)OC)C(=O)OC)ccc31)[C@H](c1ccc(OCCO)cc1)N1[C@H](c3ccccc3)[C@H](c3ccccc3)OC(=O)[C@H]1[C@@H]2C(=O)Nc1nc2ccccc2s1 is greater than or equal to -1.
Reply text: satisfied

---

- target.of.assay: Dihydroorotate dehydrogenase (quinone), mitochondrial (Plasmodium falciparum (isolate 3D7)) (UniProt Q08210)
- protocol.notes: PfDHODH enzyme inhibitors, primary screen, biochemical, C-terminal His tag, absorbance 600 nm (AID 1175);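 further: recombinant parasite enzyme with a five histidine tag at its C terminus; test concentration not given here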
- particulars: DCIP absorbance 600 nm, higher = more signal, called active from +8 up or from −8 down
Use 1 when the recorded composite z-score is no lower than -0.6; use 0 when it is lower.

Study these solved cases before continuing.
C#C[C@@H](CC)O[Si](C#CCCCC#N)(C(C)C)C(C)C; 0
CN(C)CCCCCCNC(=O)[C@@H]1C[C@@H]2C(=O)N[C@@H](CCCCN)C(=O)N2[C@@H]1c1ccc(O)cc1; 1
CN1C(=O)C2C=CC(C(O)c3ccc(F)cc3)N(NC(=O)OC(C)(C)C)C2C1=O (stereo not drawn); 1
COc1ccc([Si](C)(C)[C@H]2[C@H](CC(=O)N3Cc4ccccc4C[C@H]3CO)O[C@@]3(C(=O)N(Cc4ccc(N5C(=O)c6cccc7cccc5c67)cc4)c4ccccc43)[C@@H]2C)cc1; 0
C[C@]1(C(=O)NCC(F)(F)F)c2ccccc2C(=O)N(Cc2ccccc2)[C@H]1c1ccc(CO)cc1; 1
C=CCNC(=O)[C@@H]1[C@H]2C(=O)O[C@H](c3ccccc3)[C@H](c3ccccc3)N2[C@H](c2ccc(OCCO)cc2)[C@@]12C(=O)N(C(=O)OCCOC)c1ccc(C#CCCO)cc12; 0
CCCNC(=O)[C@@]1(Sc2ccc(C)cc2)CC(=O)N(C2CCCCC2)[C@@H]1c1ccc(CO)cc1I; 1
CO[C@H]1O[C@H](CO)[C@@H](OC(=O)Nc2ccc(C#N)cc2)[C@@H]2OC(=O)[C@H](Cc3cccc(Br)c3)C/C=C/C[C@@H](Cc3cccc(Br)c3)C(=O)O[C@@H]12; 0

Inquiry: Answer whether composite z-score of CCCNC(=O)[C@@]1(Sc2ccc(C)cc2)CC(=O)N(C(C)C)[C@@H]1c1ccc(CO)cc1I is greater than or equal to -0.6.
Reply text: 1

Inquiry: Answer whether composite z-score of COc1ccc(C#Cc2ccc3c(c2)[C@]2(C(=O)N3)[C@H](C(=O)N3CCCCCCC3)[C@H]3C(=O)O[C@H](c4ccccc4)[C@H](c4ccccc4)N3[C@@H]2c2ccc(O)cc2)cc1 is greater than or equal to -0.6.
Reply text: 0

Inquiry: Answer whether composite z-score of C=CCNC(=O)[C@H]1[C@@H]2C(=O)O[C@@H](c3ccccc3)[C@@H](c3ccccc3)N2[C@@H](c2ccc(OCCO)cc2)[C@]12C(=O)Nc1ccc(C#CCNC(N)=O)cc12 is greater than or equal to -0.6.
Reply text: 1

Inquiry: Answer whether composite z-score of COc1cc2c(cc1OC)CN(C(=O)[C@@H]1[C@H]3C(=O)O[C@H](c4ccccc4)[C@H](c4ccccc4)N3[C@H](c3ccc(O)cc3)[C@@]13C(=O)Nc1ccc(C#CCCO)cc13)CC2 is greater than or equal to -0.6.
Reply text: 1

Inquiry: Answer whether composite z-score of COc1ccc(C(=O)Nc2cccc(CN3C(=O)[C@@]4(O[C@@H](CC(=O)N(CCO)Cc5ccccc5)[C@H]([Si](C)(C)c5ccc(OC)cc5)[C@H]4C)c4ccccc43)c2)cc1 is greater than or equal to -0.6.
Reply text: 0
